Provide the recorded DC50 for the entries that follow.
# Target Entity: androgen receptor (AR) (Homo sapiens, UniProt P10275, T878A)
# Construct: endogenous in cells; host or cells: LNCAP
# Sequence (P10275 whole entry T878A): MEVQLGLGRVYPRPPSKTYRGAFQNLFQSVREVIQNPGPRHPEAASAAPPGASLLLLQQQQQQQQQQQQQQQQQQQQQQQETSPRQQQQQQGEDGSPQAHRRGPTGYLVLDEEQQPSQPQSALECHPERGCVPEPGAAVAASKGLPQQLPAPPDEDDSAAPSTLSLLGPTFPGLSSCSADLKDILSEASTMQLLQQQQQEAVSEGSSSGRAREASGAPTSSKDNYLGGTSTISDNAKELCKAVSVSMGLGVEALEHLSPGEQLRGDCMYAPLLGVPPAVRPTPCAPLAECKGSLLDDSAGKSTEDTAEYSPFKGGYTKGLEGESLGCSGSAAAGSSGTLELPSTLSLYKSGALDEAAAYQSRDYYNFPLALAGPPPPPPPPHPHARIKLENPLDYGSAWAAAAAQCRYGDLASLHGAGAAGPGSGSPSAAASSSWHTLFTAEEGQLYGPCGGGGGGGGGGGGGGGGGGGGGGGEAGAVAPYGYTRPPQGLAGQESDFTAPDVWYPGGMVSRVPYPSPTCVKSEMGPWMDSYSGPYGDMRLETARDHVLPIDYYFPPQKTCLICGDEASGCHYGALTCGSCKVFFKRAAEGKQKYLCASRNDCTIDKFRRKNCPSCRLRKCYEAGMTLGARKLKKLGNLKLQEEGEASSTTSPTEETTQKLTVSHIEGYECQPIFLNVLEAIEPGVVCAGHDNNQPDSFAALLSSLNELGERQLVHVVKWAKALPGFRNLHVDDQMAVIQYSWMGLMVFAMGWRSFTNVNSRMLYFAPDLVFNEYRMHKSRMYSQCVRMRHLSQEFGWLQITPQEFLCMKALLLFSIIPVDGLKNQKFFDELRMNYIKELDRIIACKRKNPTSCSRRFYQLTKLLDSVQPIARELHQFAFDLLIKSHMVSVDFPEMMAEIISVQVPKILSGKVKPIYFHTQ
# Assay Notes: AR degradation activity in LNCAP cells (Western blot)
# Format: cell-based
# Condition Details: 24 hours after administration, DC50 = concentration needed for 50% target protein degradation
# Procedure: LNCAP, VCAP and 22Rv1 cells were plated in 24-well plates at 1.5×10E5 cells/well in the RPMI growth medium containing 10% FBS and 1% Penicillin Streptomycin, and then incubated at 37° C. overnight. The following day, the test compound was administered to the cells by using 1000× compound stock solution prepared in DMSO at various concentrations. After administration of the compound, the cells were then incubated at 37° C. for 24 hours. […] The bands were quantified using Image Studio™ Software (Licor). […]

Field: example entries. Status: answers known.
Compound: N#Cc1ccc(OC2CCC(NC(=O)c3ccc(N4CCC(CN5CCN(c6cc7c(cc6F)C(=O)N(C6CCC(=O)NC6=O)C7=O)CC5)CC4)cc3)CC2)c2cccnc12 (stereo not drawn)
DC50: > 100 nM

Compound: N#Cc1ccc(O[C@H]2CC[C@H](NC(=O)c3ccc(N4CCC(CCN5CCN(c6ccc7c(c6)C(=O)N(C6CCC(=O)NC6=O)C7=O)CC5)CC4)cc3)CC2)c2cccnc12 (relative stereo)
DC50: < 10 nM

// next item, DC50 requested
stdin: Need DC50 of N#Cc1ccc(OC2CCC(NC(=O)c3ccc(N4CCC(CN5CCN(c6cc7c(cc6F)C(=O)N(C6CCC(=O)NC6=O)C7=O)CC5)CC4)nc3)CC2)c2cccnc12 (stereo not drawn) , thanks.
stdout: < 10 nM
